biological target: Human Calpain 9/NS1 (Homo sapiens, UniProt O14815); assay: Calpain inhibition continuous fluorescence (FRET) assay, Human Calpain 9/NS1; assay type: biochemical; conditions: Column C; read-out: Human Calpain 9/NS1 IC50
Sequence (O14815 whole entry, one chain of several): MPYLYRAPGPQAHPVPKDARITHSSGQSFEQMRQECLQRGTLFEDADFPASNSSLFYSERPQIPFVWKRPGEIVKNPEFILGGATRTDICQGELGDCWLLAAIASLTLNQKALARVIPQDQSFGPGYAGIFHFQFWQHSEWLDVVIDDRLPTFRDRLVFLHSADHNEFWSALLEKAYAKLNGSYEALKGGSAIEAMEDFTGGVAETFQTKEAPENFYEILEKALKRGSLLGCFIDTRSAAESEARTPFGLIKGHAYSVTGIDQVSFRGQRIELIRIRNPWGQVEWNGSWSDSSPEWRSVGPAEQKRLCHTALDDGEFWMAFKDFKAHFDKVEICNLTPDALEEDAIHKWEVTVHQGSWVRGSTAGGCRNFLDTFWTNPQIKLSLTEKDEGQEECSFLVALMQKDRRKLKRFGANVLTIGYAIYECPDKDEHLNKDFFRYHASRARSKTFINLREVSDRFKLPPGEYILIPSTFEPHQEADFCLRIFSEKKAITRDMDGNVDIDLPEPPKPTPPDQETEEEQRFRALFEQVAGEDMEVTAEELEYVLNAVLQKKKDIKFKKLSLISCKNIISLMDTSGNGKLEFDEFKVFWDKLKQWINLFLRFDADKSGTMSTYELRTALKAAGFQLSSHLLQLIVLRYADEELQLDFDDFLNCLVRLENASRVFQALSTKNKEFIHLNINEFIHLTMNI
measurement-type: IC50

> print(dat)
                                    compound  measurement.type  measured.result
 1  Cc1cc(C(=O)N[C@H](C=O)Cc2ccccc2)nn1-c1ccccc1 [Compound 5]              IC50       3 to 10 µM
 2  Cc1cc(C(=O)N[C@@H](Cc2ccccc2)C(=O)C(=O)NC2CC2)n(-c2ncccc2C)n1 [Compound 67]              IC50          > 10 µM
 3  O=C[C@H](Cc1ccccc1)NC(=O)c1scnc1-c1ccccc1 [Compound 6]              IC50           < 3 µM
 4  NC(=O)C(=O)[C@H](Cc1ccccc1)NC(=O)c1[nH]ncc1-c1ccccc1 [Compound 129]              IC50       3 to 10 µM
 5  Cc1noc(-c2ccccc2)c1C(=O)N[C@@H](Cc1ccccc1)C(=O)C(=O)NCc1ccc(OC(F)(F)F)cc1 [Compound 247]              IC50       3 to 10 µM
 6  Cc1cc(C(=O)N[C@@H](Cc2ccccc2)C(=O)C(N)=O)n(-c2nc3ccccc3s2)n1 [Compound 13]              IC50           < 3 µM
 7  O=C(NC1CC1)C(=O)[C@H](Cc1ccccc1)NC(=O)c1cncn1-c1nc2ccccc2[nH]1 [Compound 71]              IC50          > 10 µM
 8  Cc1cc(C(=O)N[C@@H](Cc2ccccc2)C(=O)C(N)=O)n(-c2ccnc(C)n2)n1 [Compound 244]              IC50           < 3 µM
 9  CCOC(=O)NCc1cccc(-n2nc(C)cc2C(=O)N[C@@H](Cc2ccccc2)C(=O)C(N)=O)c1 [Compound 147]              IC50           < 3 µM
10  Cc1cc(C(=O)N[C@@H](Cc2ccccc2)C(=O)C(N)=O)n(-c2ccc(-c3ccccc3)cc2)n1 [Compound 83]              IC50           < 3 µM
11  Cc1cc(C(=O)N[C@@H](Cc2ccccc2)C(=O)C(N)=O)n(-c2ccccn2)n1 [Compound 12]              IC50           < 3 µM
12  Cc1cc(C(=O)N[C@@H](Cc2ccccc2)C(=O)C(N)=O)n(-c2ccc(CNS(=O)(=O)c3ccccc3)cc2)n1 [Compound 156]              IC50           < 3 µM
13  Cc1cc(C(=O)N[C@@H](Cc2ccccc2)C(=O)C(N)=O)n(-c2cccc(CNC(=O)CCc3ccccc3)c2)n1 [Compound 142]              IC50           < 3 µM
14  CCCC[C@H](NC(=O)c1oc(C)nc1-c1ccccc1)C(=O)C(N)=O [Compound 265]              IC50           < 3 µM
15  Cc1ncn(-c2ccccc2)c1C(=O)N[C@@H](Cc1ccccc1)C(=O)C(N)=O [Compound 290]              IC50           < 3 µM
16  O=C[C@H](Cc1ccccc1)NC(=O)c1cncn1-c1ccccc1 [Compound 1]              IC50           < 3 µM
17  Cc1noc(-c2ccccc2)c1C(=O)N[C@@H](Cc1ccccc1)C(=O)C(=O)NCc1ccc2c(c1)OCO2 [Compound 225]              IC50          > 10 µM
18  CCOCc1cccc(-n2nc(C)cc2C(=O)N[C@@H](Cc2ccccc2)C(=O)C(N)=O)c1 [Compound 229]              IC50           < 3 µM

----------
Each entry below lists one item and its recorded IC50 value.
biological target: Human Calpain 2/NS1 (Homo sapiens); test: Calpain inhibition continuous fluorescence (FRET) assay, Human Calpain 2/NS1; type: biochemical; settings: Column B; read-out: Human Calpain 2/NS1 IC50
Sequence (P17655 whole entry, one chain of several): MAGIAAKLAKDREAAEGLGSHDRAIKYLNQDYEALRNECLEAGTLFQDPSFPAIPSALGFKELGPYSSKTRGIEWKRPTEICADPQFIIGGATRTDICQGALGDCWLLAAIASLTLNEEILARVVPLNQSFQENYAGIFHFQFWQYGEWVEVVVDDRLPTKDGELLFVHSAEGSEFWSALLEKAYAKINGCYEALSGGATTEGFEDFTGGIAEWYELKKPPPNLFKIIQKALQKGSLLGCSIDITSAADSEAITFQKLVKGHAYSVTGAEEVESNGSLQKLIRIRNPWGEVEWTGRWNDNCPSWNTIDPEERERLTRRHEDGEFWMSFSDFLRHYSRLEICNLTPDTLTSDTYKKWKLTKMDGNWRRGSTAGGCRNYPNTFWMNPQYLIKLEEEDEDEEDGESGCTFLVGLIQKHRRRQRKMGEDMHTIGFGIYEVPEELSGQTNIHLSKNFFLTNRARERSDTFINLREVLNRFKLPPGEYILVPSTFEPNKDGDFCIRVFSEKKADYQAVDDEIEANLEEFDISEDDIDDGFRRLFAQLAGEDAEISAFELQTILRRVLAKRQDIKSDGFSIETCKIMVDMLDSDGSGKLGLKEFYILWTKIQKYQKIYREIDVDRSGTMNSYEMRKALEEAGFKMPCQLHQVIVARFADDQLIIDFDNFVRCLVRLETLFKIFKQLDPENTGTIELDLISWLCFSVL
measurement-type: IC50

> print(dat)
                     structure.smiles.string  measured.result
 1  Cc1cc(C(=O)N[C@@H](Cc2ccccc2)C(=O)C(N)=O)n(-c2cccc(CNS(=O)(=O)c3ccccc3)c2)n1           < 3 µM
 2  Cc1cc(C(=O)N[C@@H](Cc2ccccc2)C(=O)C(N)=O)nn1-c1nc(-c2ccccc2)cs1           < 3 µM
 3  Cc1n[nH]c(-c2ccccc2)c1C(=O)N[C@@H](Cc1ccccc1)C(=O)C(N)=O           < 3 µM
 4  NC(=O)C(=O)[C@H](Cc1ccccc1)NC(=O)c1nn[nH]c1-c1ccccc1       3 to 10 µM
 5  Cc1cc(C(=O)N[C@@H](Cc2ccccc2)C(=O)C(=O)NCc2ccc(Cl)c(Cl)c2)n(-c2ccccc2)n1          > 10 µM
 6  Cn1cc(C(=O)N[C@@H](Cc2ccccc2)C(=O)C(N)=O)c(Br)n1           < 3 µM
 7  Cc1cc(C(F)(F)F)cc(-n2nc(C)cc2C(=O)N[C@@H](Cc2ccccc2)C(=O)C(N)=O)n1           < 3 µM
 8  NC(=O)C(=O)[C@H](Cc1ccccc1)NC(=O)c1nonc1-c1ccccc1           < 3 µM
 9  Cc1cc(C(=O)N[C@@H](Cc2ccccc2)C(=O)C(N)=O)nn1-c1nc2ccccc2o1          > 10 µM
10  O=C[C@H](Cc1ccccc1)NC(=O)c1cncn1-c1nc2ccccc2s1           < 3 µM
11  Cc1cc(C(=O)N[C@@H](Cc2ccccc2)C(=O)C(N)=O)n(-c2ccc(OC(F)(F)F)cc2)n1           < 3 µM
12  Cc1cc(C(=O)N[C@@H](Cc2ccccc2)C(=O)C(N)=O)n(-c2ccc(CNC(=O)CCc3ccccc3)cc2)n1           < 3 µM
13  COC(=O)NCc1ccc(-n2nc(C)cc2C(=O)N[C@@H](Cc2ccccc2)C(=O)C(N)=O)cc1           < 3 µM
14  Cc1cc(C(=O)N[C@@H](Cc2ccccc2)C(=O)C(N)=O)n(-c2cccc(CNC(=O)c3ccccc3)c2)n1           < 3 µM
15  O=C(NC1CC1)C(=O)[C@H](Cc1ccccc1)NC(=O)c1scnc1-n1ncc2ccccc21           < 3 µM
16  CC(C)(C)c1cc(C(=O)N[C@@H](Cc2ccccc2)C(=O)C(N)=O)n(-c2ccccc2)n1          > 10 µM
17  NC(=O)C(=O)[C@H](Cc1ccccc1)NC(=O)c1cncn1-c1ccc(-c2ccccc2)nn1           < 3 µM
18  Cc1cc(C(=O)N[C@@H](Cc2ccccc2)C(=O)C(=O)NC2CC2)n(-c2cccnc2)n1           < 3 µM
19  Cn1cc(C(=O)N[C@@H](Cc2ccccc2)C(=O)C(N)=O)c(-c2ccncc2)n1           < 3 µM
20  NC(=O)C(=O)[C@H](Cc1ccccc1)NC(=O)[C@@H]1C[C@@H](OCc2ccccc2)CN1c1ccccc1           < 3 µM
21  Cn1cnc(C(=O)N[C@@H](Cc2ccccc2)C(=O)C(N)=O)c1-c1ccccc1       3 to 10 µM
22  NC(=O)C(=O)[C@H](Cc1ccccc1)NC(=O)c1cncn1-c1ncc(-c2ccccc2)cn1           < 3 µM
23  Cc1ccc(-c2nn(C)cc2C(=O)N[C@@H](Cc2ccccc2)C(=O)C(N)=O)cc1           < 3 µM
24  Cc1cc(C(=O)N[C@@H](Cc2ccccc2)C(=O)C(N)=O)n(-c2nccc3ccccc23)n1           < 3 µM
25  O=C[C@H](Cc1ccccc1)NC(=O)c1cncn1-c1ccccc1           < 3 µM
26  O=C[C@H](Cc1ccccc1)NC(=O)c1cncn1-c1ccc(-c2ncco2)cn1           < 3 µM
27  Cc1cccc(-c2cccc(-n3nc(C)cc3C(=O)N[C@@H](Cc3ccccc3)C(=O)C(N)=O)c2)c1           < 3 µM

----------
Target: Human Calpain 1/NS1 (Homo sapiens)
Sequence (P07384 1-714): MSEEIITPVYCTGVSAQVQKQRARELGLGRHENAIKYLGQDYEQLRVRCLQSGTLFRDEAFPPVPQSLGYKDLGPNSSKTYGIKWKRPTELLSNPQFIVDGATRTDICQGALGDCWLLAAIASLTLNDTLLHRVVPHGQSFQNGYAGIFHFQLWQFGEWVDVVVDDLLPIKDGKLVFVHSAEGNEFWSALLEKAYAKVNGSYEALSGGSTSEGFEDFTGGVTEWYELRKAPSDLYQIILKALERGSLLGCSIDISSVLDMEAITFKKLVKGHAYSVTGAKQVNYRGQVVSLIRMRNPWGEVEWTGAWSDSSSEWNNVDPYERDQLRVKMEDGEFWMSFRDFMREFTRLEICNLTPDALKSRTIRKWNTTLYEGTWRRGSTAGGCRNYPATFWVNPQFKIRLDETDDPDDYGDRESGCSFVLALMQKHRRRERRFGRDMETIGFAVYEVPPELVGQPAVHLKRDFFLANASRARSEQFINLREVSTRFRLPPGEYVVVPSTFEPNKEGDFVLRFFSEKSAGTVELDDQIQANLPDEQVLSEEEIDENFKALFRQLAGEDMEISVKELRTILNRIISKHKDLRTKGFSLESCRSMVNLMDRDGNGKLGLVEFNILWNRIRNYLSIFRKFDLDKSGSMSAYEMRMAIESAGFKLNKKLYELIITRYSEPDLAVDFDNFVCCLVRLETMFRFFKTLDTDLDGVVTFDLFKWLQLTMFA
Sequence (P04632 1-268 partner): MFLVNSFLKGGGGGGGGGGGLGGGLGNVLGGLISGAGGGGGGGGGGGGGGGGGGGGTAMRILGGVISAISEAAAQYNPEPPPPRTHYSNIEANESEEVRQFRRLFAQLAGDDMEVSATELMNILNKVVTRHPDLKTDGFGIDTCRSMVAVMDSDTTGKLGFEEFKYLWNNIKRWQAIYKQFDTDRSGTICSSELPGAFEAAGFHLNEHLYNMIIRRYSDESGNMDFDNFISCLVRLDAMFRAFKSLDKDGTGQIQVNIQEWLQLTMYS
Assay: Calpain inhibition continuous fluorescence (FRET) assay, Human Calpain 1/NS1
Assay type: biochemical
Settings: Column A; read-out: Human Calpain 1/NS1 IC50
measurement-type: IC50

> print(dat)
                     structure.smiles.string  measured.result
 1  Cc1cc(C(=O)N[C@@H](Cc2ccccc2)C(=O)C(N)=O)n(-c2ccc(-c3ccccc3F)cc2)n1           < 3 µM
 2  Cc1cc(C(=O)N[C@@H](Cc2ccccc2)C(=O)C(N)=O)nn1-c1ncc(-c2ccccc2)s1          > 10 µM
 3  NC(=O)C(=O)[C@H](Cc1ccccc1)NC(=O)c1cncn1-c1ccc(-c2ccccc2)nn1           < 3 µM
 4  Cc1nc(-c2ccccc2)c(C(=O)N[C@@H](Cc2ccc(F)cc2)C(=O)C(N)=O)o1           < 3 µM
 5  Cn1ncc(C(=O)N[C@@H](Cc2ccccc2)C(=O)C(N)=O)c1-c1ccccn1           < 3 µM
 6  Cc1cc(C(=O)N[C@@H](Cc2ccccc2)C(=O)C(N)=O)n(-c2nc3c(C)cccc3s2)n1          > 10 µM
 7  Cc1nc(-c2ccccc2)c(C(=O)N[C@@H](CC(C)C)C(=O)C(N)=O)o1           < 3 µM
 8  Cc1cc(C(=O)N[C@@H](Cc2ccccc2)C(=O)C(N)=O)n(-c2cccc(-c3ccc(F)cc3)c2)n1           < 3 µM
 9  Cn1ncc(C(=O)N[C@@H](Cc2ccccc2)C(=O)C(N)=O)c1-c1cnccn1           < 3 µM
10  Cc1noc(-c2ccccc2)c1C(=O)N[C@@H](Cc1ccc(F)cc1)C(=O)C(N)=O           < 3 µM
11  Cc1cnn(-c2ccccc2)c1C(=O)N[C@@H](Cc1ccccc1)C(=O)C(N)=O           < 3 µM
12  COc1ccc2nc(-n3nc(C(=O)N[C@@H](Cc4ccccc4)C(=O)C(N)=O)cc3C)sc2c1           < 3 µM
13  O=C[C@H](Cc1ccccc1)NC(=O)c1scnc1-c1ccccc1           < 3 µM
14  N#Cc1cc(C(=O)N[C@@H](Cc2ccccc2)C(=O)C(N)=O)n(-c2ccccc2)n1          > 10 µM
15  O=C(NC1CC1)C(=O)[C@H](Cc1ccccc1)NC(=O)c1cncn1-c1ncc(-c2ccccc2)cn1           < 3 µM
16  Cn1ncc(C(=O)N[C@@H](Cc2ccccc2)C(=O)C(N)=O)c1-c1cncnc1           < 3 µM
17  NC(=O)C(=O)[C@H](Cc1ccccc1)NC(=O)c1cc(Cl)nn1-c1ccccc1           < 3 µM
18  Cc1cc(C(=O)N[C@@H](Cc2ccccc2)C(=O)C(N)=O)n(-c2cccc(CNS(=O)(=O)c3ccccc3)c2)n1           < 3 µM
19  NC(=O)C(=O)[C@H](Cc1ccccc1)NC(=O)c1cnoc1-c1ccccc1           < 3 µM
20  CC(C)c1cc(C(=O)N[C@@H](Cc2ccccc2)C(=O)C(N)=O)n(-c2ccccc2)n1       3 to 10 µM
21  COc1ccc(C[C@H](NC(=O)c2c(C)noc2-c2ccccc2)C(=O)C(N)=O)cc1           < 3 µM
22  NC(=O)C(=O)[C@H](Cc1ccccc1)NC(=O)c1cnnn1-c1ccccc1           < 3 µM
